- experimental protocol: NCI Yeast Anticancer Drug Screen. Data for the mec2-1 strain (AID 157)
- cond: S. cerevisiae mec2-1 strain, at 50.0 µM, active compounds read high
Compounds without any hit were thinned out: in the full panel of roughly 79,000, 15% have a hit.
Could you label it YES if measured growth inhibition is 60% or higher, and NO otherwise?

molecule | group label
COc1ccc(-c2cc3ccccc3c(=O)n2Cc2ccccc2)cc1 | YES
O=C1c2ccccc2C(=O)c2c1ccc(C(=O)O)c2-c1ccc2ccccc2c1 | YES
COC(=O)c1cc[nH]c(=O)c1 | NO
C/C([O-])=C1\Cc2ccccc2C1=O.C/C([O-])=C1\Cc2ccccc2C1=O.CC[O-].CC[O-].[Ti+4] | YES
CC(=O)N=C1N(/C=C2\C(=O)Oc3ccccc3C2=O)C(=O)/C(=C/c2cccc(Cl)c2Cl)N1C | NO
C/C(=C/C(=O)/C=C/c1ccccc1)c1c(C)[nH]c2ccccc12 | NO
CC1=NC(c2ccccc2)(C2(c3ccccc3)C(c3ccccc3)=C2c2ccccc2)C(=O)O1 (stereo not given) | YES
CC(Br)C(=O)c1ccc2cc(Cl)c3ccccc3c2c1 (stereo not given) | NO
CN(C)CCCNc1c2ccccc2nc2cccc([N+](=O)[O-])c12 | YES
